- Test system: PAE 105250
- protocol.description: MIC, broth microdilution (CLSI), substance alone or ATB combined with compound at 4 or 8 μg/mL
- Type: cell-based, P. aeruginosa
- study.conditions: PAE 105250; with Example 14 at 8 μg/ml
Entries and their MIC ATB combined with Example 14 @8 μg/ml values follow.

Reference set (3 entries):
* COCC1=C(C(=O)O)N2C(=O)[C@@H](NC(=O)/C(=N\OC)c3csc(N)n3)[C@H]2SC1 [POD, Cefpodoxime, reference compound] | >32 µg/mL
* C=CC1=C(C(=O)O)N2C(=O)[C@@H](NC(=O)/C(=N\OCC(=O)O)c3csc(N)n3)[C@H]2SC1 [FIX, Cefixime, reference compound] | >32 µg/mL
* C[C@@H](O)[C@H]1C(=O)N2C(C(=O)O)=C(SCCN=CN)C[C@H]12 [IMI] | 2 µg/mL

Consider the record given below.
**Query** Would you kindly share the measured MIC ATB combined with Example 14 @8 μg/ml for O=C(N[C@H](CO)[C@H](O)c1ccc([N+](=O)[O-])cc1)C(Cl)Cl [CM] ?
**Result** >32 µg/mL

* * *

- Tested on: PAE UFR48
- protocol.description: MIC, broth microdilution (CLSI), substance alone or ATB combined with compound at 4 or 8 μg/mL
- Type: cell-based, P. aeruginosa
- study.conditions: ATB ATM; compound @4 μg/ml; PAE UFR48
Entries and their MIC ATB combined with compound values follow.
Form entry: value (µg/mL) — number only.

- O=C1N2CC(c3ncco3)=C[C@H](C2)N1OS(=O)(=O)[O-].[Na+] [Example 9]: 128

**Query** Would you kindly share the measured MIC ATB combined with compound for NCCON=C1C[C@@H](C(N)=O)N2C[C@@H]1N(OS(=O)(=O)[O-])C2=O.[Na+] [Example 2] ?
**Result** 8

* * *

- System: PAE UFR90
- protocol.description: MIC, broth microdilution (CLSI), substance alone or ATB combined with compound at 4 or 8 μg/mL
- Format: cell-based, P. aeruginosa
- study.conditions: ATB ATM; compound @4 μg/ml; PAE UFR90
outcome.measure: MIC ATB combined with compound (µg/mL)
Form entry: value (µg/mL) — number only.

* O=C1N2CC(c3ncco3)=C[C@H](C2)N1OS(=O)(=O)[O-].[Na+] | 128

**Query** Would you kindly share the measured MIC ATB combined with compound for NCCON=C1C[C@@H](C(N)=O)N2C[C@@H]1N(OS(=O)(=O)[O-])C2=O.[Na+] ?
**Result** 16

* * *

- Test system: KPN 6299
- protocol.description: MIC, broth microdilution (CLSI), substance alone or ATB combined with compound at 4 or 8 μg/mL
- Assay type: cell-based, K. pneumoniae
- study.conditions: with Example 15 at 4 μg/ml
outcome.measure: MIC ATB combined with Example 15 @4 μgml

Reference set (5 entries):
* NCC[C@H](O)C(=O)N[C@@H]1C[C@H](N)[C@@H](O[C@H]2O[C@H](CN)[C@@H](O)[C@H](O)[C@H]2O)[C@H](O)[C@H]1O[C@H]1O[C@H](CO)[C@@H](O)[C@H](N)[C@H]1O [AN, Amikacin, reference compound] | <=0.031 μg/mL
* CC1(C)S[C@@H]2[C@H](NC(=O)[C@H](N)c3ccc(O)cc3)C(=O)N2[C@H]1C(=O)O [AMX, Amoxicillin, reference compound] | <0.031 µg/mL
* CO/N=C(\C(=O)N[C@@H]1C(=O)N2C(C(=O)[O-])=C(C[n+]3cccc4c3CCC4)CS[C@H]12)c1csc(N)n1 | <=0.031 μg/mL
* CO/N=C(\C(=O)N[C@@H]1C(=O)N2C(C(=O)O)=C(COC(N)=O)CS[C@H]12)c1ccco1 [FUR, Cefuroxime, reference compound] | <0.031 µg/mL
* COCC1=C(C(=O)O)N2C(=O)[C@@H](NC(=O)/C(=N\OC)c3csc(N)n3)[C@H]2SC1 [POD, Cefpodoxime, reference compound] | <0.031 µg/mL

**Query** Would you kindly share the measured MIC ATB combined with Example 15 @4 μgml for C[C@@H](O)[C@H]1C(=O)N2C(C(=O)O)=C(SCCN=CN)C[C@H]12 ?
**Result** <0.031 µg/mL

**Query** Next compound: CN(C)c1cc(NC(=O)CNC(C)(C)C)c(O)c2c1C[C@H]1C[C@H]3[C@H](N(C)C)C(O)=C(C(N)=O)C(=O)[C@@]3(O)C(O)=C1C2=O
**Result** <0.031 µg/mL

**Query** Next compound: C=CC1=C(C(=O)O)N2C(=O)[C@@H](NC(=O)/C(=N\OCC(=O)O)c3csc(N)n3)[C@H]2SC1 [FIX, Cefixime, reference compound]
**Result** <0.031 µg/mL
